Assay: Kpuu
Assay type: in vivo
Settings: brain/blood; average
assay.metric: Kp uu
Numbers only.

smiles.record | Kp uu
C#Cc1cccc(Nc2ncnc3cc(OCCOC)c(OCCOC)cc23)c1 | 0.0513

Then this compound:
Data request: Sample Fc1c(Cl)cccc1Nc1ncnc2cc3c(cc12)OCCO3 — what was its Kp uu?
Data returned: 1.15

###

Assay: Protein binding (fraction unbound) in blood and brain
Type: in vitro ADME
Settings: blood (first line of each compound); read-out: Fu (blood)
assay.metric: fraction unbound
Give bare numbers.

Data request: Which measured fraction unbound value corresponds to Fc1c(Cl)cccc1Nc1ncnc2cc3c(cc12)OCCO3 ?
Data returned: 0.0052

Source of measurements: patent US20240043390A1
